Where these numbers come from: PubChem BioAssay AID1259407

System: CCRIS mutagenicity, Ames/micronucleus/aberration tests
protocol: CCRIS mutagenicity studies
testContext: Test System: E. COLI; Strain/Indicator: WP2 UVRA; Metabolic Activation: RAT, LIVER, S-9, AROCLOR 1254; Method: STANDARD PLATE
Text: The CCRIS database contains chemical records with carcinogenicity, mutagenicity, tumor promotion, and tumor inhibition test results. It was developed by the National Cancer Institute (NCI). Data are derived from studies cited in primary journals, current awareness tools, NCI reports, and other sources. Test results have been reviewed by experts in carcinogenesis and mutagenesis. CCRIS provides historical information from the years 1985 - 2011. It is no longer updated. […]
The source made the active and inactive calls. No rule for the calls is given here.
Respond using exactly one of the listed classes: true (1) for active, false (0) for inactive

Record excerpt, results attached:
molecule	testedOn	labelValue
c1ccc2c(c1)ccc1ccccc12	CCRIS mutagenicity, Ames/micronucleus/aberration tests	false (0)
CC(O)CN(C)c1ccc(NN)nn1 (stereo not drawn)	CCRIS mutagenicity, Ames/micronucleus/aberration tests	true (1)

Please look at the following molecule next.
For this molecule, state the assay outcome: CNNCc1ccc(C(=O)NC(C)C)cc1
false (0)

###

System: CCRIS mutagenicity, Ames/micronucleus/aberration tests
protocol: CCRIS mutagenicity studies
testContext: End Point: IN VITRO CHROMOSOMAL ABERRATIONS; Test System: CHL CELLS; Metabolic Activation: RAT, LIVER, S-9, SODIUM PHENOBARBITAL AND 5,6-BENZOFLAVONE
Active and inactive are the calls of the source. No rule for the calls is given here.
Respond using exactly one of the listed classes: yes (1) (active), no (0) (inactive)

compound	labelValue
CC(C)(Br)C(=O)O	yes (1)
CCn1c2ccccc2c2cc(C=O)ccc21	yes (1)
O=[N+]([O-])c1cc(Cl)ccc1Cl	yes (1)
Cc1cc([N+](=O)[O-])ccc1N	no (0)
CC1CO1 (configuration not stated)	yes (1)
CCOS(=O)(=O)OCC	yes (1)

For this compound, state the assay outcome: Cc1cc(-c2ccc(N=C=O)c(C)c2)ccc1N=C=O
yes (1)

For this compound, state the assay outcome: ClCC(Cl)CCl
yes (1)

For this compound, state the assay outcome: CCN(CC)c1ccc(N=Nc2sc(C=O)c(Cl)c2C#N)c(NC(=O)COC)c1
no (0)

For this compound, state the assay outcome: O=C(Br)CBr
no (0)

For this compound, state the assay outcome: Oc1cccc2cccnc12
yes (1)

For this compound, state the assay outcome: BrCCBr
yes (1)

###

Tested on: CCRIS mutagenicity, Ames/micronucleus/aberration tests
protocol: CCRIS mutagenicity studies
testContext: End Point: IN VITRO CHROMOSOMAL ABERRATIONS; Test System: CHO CELLS; Metabolic Activation: RAT, LIVER, S-9, AROCLOR 1254
The source made the active and inactive calls. No rule for the calls is given here.
Respond using exactly one of the listed classes: true (1) for active, false (0) for inactive

Record excerpt, results attached:
compound	testedOn	labelValue
CC(Cl)CCCC(Cl)CCCC(Cl)CCCC(Cl)CCCC(Cl)CCCC(Cl)CCCl (centres undefined)	CCRIS mutagenicity, Ames/micronucleus/aberration tests	false (0)
CC(C)(c1ccc(O)cc1)c1ccc(O)cc1	CCRIS mutagenicity, Ames/micronucleus/aberration tests	false (0)
c1cc(OCC2CO2)cc(OCC2CO2)c1 (centres undefined)	CCRIS mutagenicity, Ames/micronucleus/aberration tests	true (1)

For this compound, state the assay outcome: [Cl][Sn][Cl]
true (1)

###

System: CCRIS mutagenicity, Ames/micronucleus/aberration tests
protocol: CCRIS mutagenicity studies
testContext: Test System: AMES SALMONELLA TYPHIMURIUM; Strain/Indicator: TA100; Metabolic Activation: NONE; Method: PREINCUBATION
Activity calls are given as the source filed them. The rule behind the calls is not given here.
Respond using exactly one of the listed classes: class 1 (active), class 0 (inactive)

For this compound, state the assay outcome: C=C(C#N)C(=O)OC
class 1

For this compound, state the assay outcome: c1ccc2c(c1)ccc1ccccc12
class 0

For this compound, state the assay outcome: c1cc2ccc3cccc4ccc(c1)c2c34
class 0

For this compound, state the assay outcome: Cc1cc(=O)oc2c3c(ccc12)C1(C)OOC1(C)O3 (centres undefined)
class 1

###

Test system: CCRIS mutagenicity, Ames/micronucleus/aberration tests
protocol: CCRIS mutagenicity studies
testContext: Test System: AMES SALMONELLA TYPHIMURIUM; Strain/Indicator: TA100; Metabolic Activation: RAT, LIVER, S-9, AROCLOR 1254 (10%); Method: PREINCUBATION
Activity calls are given as the source filed them. How the calls were made is not given here.
Respond using exactly one of the listed classes: active, inactive

Record excerpt, results attached:
molecule	labelValue
C=C(C)C(=O)OCCCCCCCCCC	inactive
CCCCCCCCCCCC(=O)O	inactive
O=C1OC(=O)c2c(Cl)c(Cl)c(Cl)c(Cl)c21	inactive

For this molecule, state the assay outcome: CC1(C)CC(N=C=O)CC(C)(CN=C=O)C1 (stereo not drawn)
inactive

For this molecule, state the assay outcome: Cc1cccc(C#N)c1
inactive

For this molecule, state the assay outcome: COP(=S)(OC)SCn1nnc2ccccc2c1=O
inactive

For this molecule, state the assay outcome: F
inactive

For this molecule, state the assay outcome: CCCCN
inactive

For this molecule, state the assay outcome: Nc1ccc(NCCO)c([N+](=O)[O-])c1
active

For this molecule, state the assay outcome: CCN
inactive

For this molecule, state the assay outcome: ClC(Br)Br
inactive

For this molecule, state the assay outcome: CC1CO1 (stereo not drawn)
active

For this molecule, state the assay outcome: Cc1cc(N=Nc2c(O)ccc3ccccc23)c(S(=O)(=O)O)cc1Cl
inactive

For this molecule, state the assay outcome: CC(Cl)(Cl)[N+](=O)[O-]
active

For this molecule, state the assay outcome: CCCCOCCCC
inactive

For this molecule, state the assay outcome: CON
inactive

For this molecule, state the assay outcome: COC(=O)c1ccccc1C(=O)OC
inactive

###

Test system: CCRIS mutagenicity, Ames/micronucleus/aberration tests
protocol: CCRIS mutagenicity studies
testContext: Test System: AMES SALMONELLA TYPHIMURIUM; Strain/Indicator: TA100; Metabolic Activation: RAT, LIVER, S-9, AROCLOR 1254; Method: PREINCUBATION
The source made the active and inactive calls. The rule behind the calls is not given here.
Respond using exactly one of the listed classes: yes (1) = active, no (0) = inactive

Record excerpt, results attached:
molecule	testedOn	labelValue
CCN(CC)C(=S)SSC[C@H](NC(=O)CC[C@H](N)C(=O)O)C(=O)NCC(=O)O	CCRIS mutagenicity, Ames/micronucleus/aberration tests	no (0)
CC(=O)NC[C@H](O)COc1cccc2ccccc12	CCRIS mutagenicity, Ames/micronucleus/aberration tests	no (0)
CCC/C=C/C=O	CCRIS mutagenicity, Ames/micronucleus/aberration tests	no (0)
O=[N+]([O-])c1cccc(CBr)c1	CCRIS mutagenicity, Ames/micronucleus/aberration tests	no (0)
CN(C)C(=O)Nc1ccc(Cl)cc1	CCRIS mutagenicity, Ames/micronucleus/aberration tests	no (0)

For this molecule, state the assay outcome: CCn1c2ccccc2c2cc(N)ccc21
yes (1)

For this molecule, state the assay outcome: CCCC/C=C/C=O
no (0)

For this molecule, state the assay outcome: CN(N=O)C(N)=O
yes (1)

For this molecule, state the assay outcome: [Cl][Pt-2]([Cl])([Cl])([Cl])([Cl])[Cl]
no (0)

For this molecule, state the assay outcome: CCC[C@]1(O)CC[C@H]2[C@@H]3CC[C@H]4CC(=O)C[C@H](C)[C@]4(C)[C@H]3CC[C@@]21C
no (0)

For this molecule, state the assay outcome: COc1cc(CNC(=O)CCCC/C=C/C(C)C)ccc1O
no (0)

For this molecule, state the assay outcome: CCCCOCCOP(=O)(OCCOCCCC)OCCOCCCC
no (0)

For this molecule, state the assay outcome: ClCC(Cl)CCl
yes (1)

For this molecule, state the assay outcome: ClC(Br)Br
no (0)

For this molecule, state the assay outcome: O=[N+]([O-])c1c(Cl)c(Cl)cc(Cl)c1Cl
no (0)

For this molecule, state the assay outcome: Fc1c(F)c(F)c(Cl)c(F)c1F
no (0)

For this molecule, state the assay outcome: ClC(Cl)=C(Cl)Cl
no (0)

###

Tested on: CCRIS mutagenicity, Ames/micronucleus/aberration tests
protocol: CCRIS mutagenicity studies
testContext: Test System: AMES SALMONELLA TYPHIMURIUM; Strain/Indicator: TA98; Metabolic Activation: NONE; Method: STANDARD PLATE
Active and inactive are the calls of the source. No rule for the calls is given here.
Respond using exactly one of the listed classes: active, inactive

Record excerpt, results attached:
compound	testedOn	labelValue
COc1cccc2c1C(=O)c1c(O)c3c(c(O)c1C2=O)C[C@@](O)(C(C)=O)C[C@@H]3O[C@H]1C[C@H](N)[C@H](O)[C@H](C)O1	CCRIS mutagenicity, Ames/micronucleus/aberration tests	active
Clc1cccc(-c2nc3ccccc3o2)c1	CCRIS mutagenicity, Ames/micronucleus/aberration tests	inactive

For this compound, state the assay outcome: CC1NC(C(=O)O)Cc2c1[nH]c1ccccc21 (stereo not given)
inactive

For this compound, state the assay outcome: Cn1c(N=[N+]=[N-])nc2c3ccccc3ccc21
active

For this compound, state the assay outcome: [Cl][Rh-2]([Cl])([Cl])([Cl])[Cl]
active
